All values here come from ChEMBL document CHEMBL3045530.

# TEST METHOD NOTES: Cytotoxicity against Chlorocebus aethiops (African green monkey) Vero cells assessed as alteration in cell morphology by microscopy
# Format: cell-based
# MEASUREMENT PARAMETERS: chlorocebus sabaeus, read-out: MTC
OUTCOME MEASURE: MCC (µg/mL)

1. C/C(=N\NC(=O)c1ccncc1)c1ccc([N+](=O)[O-])cc1 ... 100
2. C/C(=N\NC(=O)c1ccncc1)c1ccc(O)cc1O ... 20
3. C/C(=N\NC(=O)c1ccncc1)c1ccc(Cl)cc1 ... 100

====

EC50 for assorted molecules
# Tested on: Human immunodeficiency virus 1
# TEST METHOD NOTES: Antiviral activity against Human immunodeficiency virus 1 IIIB infected MT4 cells assessed as inhibition of virus-induced cytopathic effect after 4 days by MTT assay
# Type: functional, organism-based
# MEASUREMENT PARAMETERS: MT4, 96 h
OUTCOME MEASURE: EC50

1. C/C(=N\NC(=O)c1ccncc1)c1cccc([N+](=O)[O-])c1 ... > 63 µg/mL
2. COc1ccc(OC)c(/C(C)=N/NC(=O)c2ccncc2)c1 ... > 88 µg/mL
3. C/C(=N\NC(=O)c1ccncc1)c1ccc([N+](=O)[O-])cc1 ... > 77 µg/mL
4. O=C(NN=C1CCCCCC1)c1ccncc1 [N'-CYCLOHEPTYLIDENEISONICOTINOHYDRAZIDE] ... > 86 µg/mL
5. C/C(=N\NC(=O)c1ccncc1)c1ccc(Cl)cc1 ... > 88 µg/mL
6. COc1ccc(/C(C)=N/NC(=O)c2ccncc2)c(OC)c1 ... > 12 µg/mL
7. C/C(=N\NC(=O)c1ccncc1)c1ccc(Cl)cc1Cl ... > 38 µg/mL
8. C/C(=N\NC(=O)c1ccncc1)c1ccc(O)cc1O ... > 9.7 µg/mL
9. C/C(=N\NC(=O)c1ccncc1)c1ccc(O)cc1 ... > 95 µg/mL
10. C/C(=N\NC(=O)c1ccncc1)c1ccccc1O ... > 0.5 µg/mL
11. C/C(=N\NC(=O)c1ccncc1)c1ccc(Br)cc1 ... > 43 µg/mL

====

# TEST METHOD NOTES: Cytotoxicity against Chlorocebus aethiops (African green monkey) Vero cells assessed as alteration in cell morphology by microscopy
# Type: cell-based
# MEASUREMENT PARAMETERS: chlorocebus sabaeus, read-out: MTC
OUTCOME MEASURE: MCC (µg/mL)

1. C/C(=N\NC(=O)c1ccncc1)c1ccc(Cl)cc1Cl ... 100
2. COc1ccc(/C(C)=N/NC(=O)c2ccncc2)c(OC)c1 ... 100
3. C/C(=N\NC(=O)c1ccncc1)c1cccc([N+](=O)[O-])c1 ... 20

====

# TEST METHOD NOTES: Cytotoxicity against Homo sapiens (human) HEL cells assessed as alteration in cell morphology by microscopy
# Format: cell-based
# MEASUREMENT PARAMETERS: read-out: MTC
MCC values by entry
OUTCOME MEASURE: MCC

1. C/C(=N\NC(=O)c1ccncc1)c1ccc([N+](=O)[O-])cc1 ... > 100 µg/mL
2. O=C(NN=C1CCCCCC1)c1ccncc1 [N'-CYCLOHEPTYLIDENEISONICOTINOHYDRAZIDE] ... > 100 µg/mL
3. COc1ccc(/C(C)=N/NC(=O)c2ccncc2)c(OC)c1 ... > 100 µg/mL
4. COc1ccc(OC)c(/C(C)=N/NC(=O)c2ccncc2)c1 ... > 100 µg/mL
5. C/C(=N\NC(=O)c1ccncc1)c1ccc(O)cc1 ... 100 µg/mL
6. C/C(=N\NC(=O)c1ccncc1)c1ccccc1O ... 100 µg/mL

====

# Test system: Vaccinia virus
# TEST METHOD NOTES: Antiviral activity against Vaccinia virus infected human HEL cells assessed as inhibition of virus-induced cytopathicity by microscopy
# Assay type: functional, organism-based
# MEASUREMENT PARAMETERS: Orthopoxvirus vaccinia
OUTCOME MEASURE: EC50

1) C/C(=N\NC(=O)c1ccncc1)c1ccc(O)cc1 ... > 20 µg/mL
2) COc1ccc(/C(C)=N/NC(=O)c2ccncc2)c(OC)c1 ... > 100 µg/mL
3) C/C(=N\NC(=O)c1ccncc1)c1ccc(Cl)cc1 ... > 20 µg/mL
4) C/C(=N\NC(=O)c1ccncc1)c1ccc(Br)cc1 ... > 20 µg/mL
5) C/C(=N\NC(=O)c1ccncc1)c1cccc([N+](=O)[O-])c1 ... > 20 µg/mL
6) C/C(=N\NC(=O)c1ccncc1)c1ccccc1O ... 3.5 µg/mL
7) C/C(=N\NC(=O)c1ccncc1)c1ccc([N+](=O)[O-])cc1 ... > 100 µg/mL
8) C/C(=N\NC(=O)c1ccncc1)c1ccc(Cl)cc1Cl ... > 100 µg/mL
9) O=C(NN=C1CCCCCC1)c1ccncc1 [N'-CYCLOHEPTYLIDENEISONICOTINOHYDRAZIDE] ... > 100 µg/mL
10) COc1ccc(OC)c(/C(C)=N/NC(=O)c2ccncc2)c1 ... > 100 µg/mL
11) C/C(=N\NC(=O)c1ccncc1)c1ccc(O)cc1O ... 2.5 µg/mL

====

# Test system: Punta Toro virus
# TEST METHOD NOTES: Antiviral activity against Punta Toro virus infected Vero cells assessed as inhibition of virus-induced cytopathicity
# Format: functional, organism-based
Measured EC50 by item
OUTCOME MEASURE: EC50

1. C/C(=N\NC(=O)c1ccncc1)c1ccc(Cl)cc1 ... > 20 mg/L
2. C/C(=N\NC(=O)c1ccncc1)c1ccc([N+](=O)[O-])cc1 ... > 20 mg/L
3. C/C(=N\NC(=O)c1ccncc1)c1cccc([N+](=O)[O-])c1 ... > 4 mg/L
4. C/C(=N\NC(=O)c1ccncc1)c1ccc(Br)cc1 ... > 20 mg/L
5. C/C(=N\NC(=O)c1ccncc1)c1ccc(O)cc1O ... > 4 mg/L
6. COc1ccc(/C(C)=N/NC(=O)c2ccncc2)c(OC)c1 ... > 20 mg/L
7. C/C(=N\NC(=O)c1ccncc1)c1ccccc1O ... > 4 mg/L
8. O=C(NN=C1CCCCCC1)c1ccncc1 [N'-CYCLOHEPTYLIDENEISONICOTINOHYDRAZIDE] ... > 100 mg/L
9. COc1ccc(OC)c(/C(C)=N/NC(=O)c2ccncc2)c1 ... > 100 mg/L
10. C/C(=N\NC(=O)c1ccncc1)c1ccc(O)cc1 ... > 20 mg/L
11. C/C(=N\NC(=O)c1ccncc1)c1ccc(Cl)cc1Cl ... > 20 mg/L

====

# TEST METHOD NOTES: Cytotoxicity against Homo sapiens (human) HeLa cells assessed as alteration in cell morphology by microscopy
# Format: cell-based
# MEASUREMENT PARAMETERS: read-out: MTC
OUTCOME MEASURE: MCC (µg/mL)

1) C/C(=N\NC(=O)c1ccncc1)c1ccc(Cl)cc1Cl ... 100
2) C/C(=N\NC(=O)c1ccncc1)c1cccc([N+](=O)[O-])c1 ... 20
3) C/C(=N\NC(=O)c1ccncc1)c1ccccc1O ... 1
4) C/C(=N\NC(=O)c1ccncc1)c1ccc(O)cc1 ... 100
5) C/C(=N\NC(=O)c1ccncc1)c1ccc(Cl)cc1 ... 100
6) C/C(=N\NC(=O)c1ccncc1)c1ccc(Br)cc1 ... 20
7) C/C(=N\NC(=O)c1ccncc1)c1ccc(O)cc1O ... 4
8) C/C(=N\NC(=O)c1ccncc1)c1ccc([N+](=O)[O-])cc1 ... 100
9) COc1ccc(/C(C)=N/NC(=O)c2ccncc2)c(OC)c1 ... 20

====

Measured EC50 of individual entries
# Test system: Sindbis virus
# TEST METHOD NOTES: Antiviral activity against Sindbis virus infected Vero cells assessed as inhibition of virus-induced cytopathicity
# Assay type: functional, organism-based
OUTCOME MEASURE: EC50

1. C/C(=N\NC(=O)c1ccncc1)c1ccc(O)cc1O ... > 4 µg/mL
2. COc1ccc(OC)c(/C(C)=N/NC(=O)c2ccncc2)c1 ... > 100 µg/mL
3. C/C(=N\NC(=O)c1ccncc1)c1ccc(Cl)cc1 ... > 20 µg/mL
4. C/C(=N\NC(=O)c1ccncc1)c1cccc([N+](=O)[O-])c1 ... > 4 µg/mL
5. C/C(=N\NC(=O)c1ccncc1)c1ccc(Cl)cc1Cl ... > 20 µg/mL
6. COc1ccc(/C(C)=N/NC(=O)c2ccncc2)c(OC)c1 ... > 20 µg/mL
7. C/C(=N\NC(=O)c1ccncc1)c1ccc(Br)cc1 ... > 20 µg/mL
8. C/C(=N\NC(=O)c1ccncc1)c1ccccc1O ... > 4 µg/mL
9. C/C(=N\NC(=O)c1ccncc1)c1ccc(O)cc1 ... > 20 µg/mL
10. C/C(=N\NC(=O)c1ccncc1)c1ccc([N+](=O)[O-])cc1 ... > 20 µg/mL
11. O=C(NN=C1CCCCCC1)c1ccncc1 [N'-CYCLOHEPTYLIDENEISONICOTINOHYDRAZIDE] ... > 100 µg/mL
